Listed here are compounds together with their documented Emax at 100 µM.
# Test system: Hep-3B cells
# procedureSummary: Cellular assay: erythropoietin secretion in Hep-3B cells
# Assay type: cell-based, human
# measurementSetup: Homo sapiens, Hep3B, 100 μM compound, 24 hours, percent of EPO secretion relative to assay control compound 7-[(4-Chloro-phenyl)-(5-methyl-isoxazol-3-ylamino)-methyl]-quinolin-8-ol, read-out: Cellular % EPO Stimulation
Write the answer as a number in %, unit excluded.

[[record]]
compound = "NC(=O)c1cccc(CNc2ccc3nc(-n4cc(C(=O)O)cn4)[nH]c(=O)c3c2)c1 [Example 179]"
targetofassay = "Hep-3B cells"
readoutvalue = 12

[[record]]
compound = "O=C(O)c1cnn(-c2nc3ccc(NCc4cccc(Cl)c4)cc3c(=O)[nH]2)c1 [Example 182]"
targetofassay = "Hep-3B cells"
readoutvalue = 26

[[record]]
compound = "CC(C)(C)c1cccc2c(=O)[nH]c(-n3cc(C(=O)O)cn3)nc12 [Example 115]"
targetofassay = "Hep-3B cells"
readoutvalue = 27

[[record]]
compound = "Cc1ccc(CNc2ccc3nc(-n4cc(C(=O)O)cn4)[nH]c(=O)c3c2)cc1 [Example 183]"
targetofassay = "Hep-3B cells"
readoutvalue = 89

[[record]]
compound = "O=C(O)c1cnn(-c2nc3cc4c(cc3c(=O)[nH]2)CCC4)c1 [Example 140]"
targetofassay = "Hep-3B cells"
readoutvalue = 62


Which Emax at 100 µM reading was recorded for the compound O=C(O)c1cnn(-c2nc3cc(Cl)c(OC(F)(F)F)cc3c(=O)[nH]2)c1 [Example 22] ?
61

Which Emax at 100 µM reading was recorded for the compound O=C(O)c1cnn(-c2nc3ccc(-c4ccccc4Cl)cc3c(=O)[nH]2)c1 [Example 192] ?
87

Which Emax at 100 µM reading was recorded for the compound O=C(O)c1cnn(-c2nc3ccc(Oc4c(Cl)cccc4Cl)cc3c(=O)[nH]2)c1 [Example 38] ?
91

----------
# Test system: Hep-3B cells
# procedureSummary: Cellular assay: erythropoietin secretion in Hep-3B cells
# Format: cell-based, human
# measurementSetup: Homo sapiens, Hep3B, 100 μM compound, 24 hours, percent of EPO secretion relative to assay control compound 7-[(4-Chloro-phenyl)-(5-methyl-isoxazol-3-ylamino)-methyl]-quinolin-8-ol, read-out: Cellular % EPO Stimulation
# Procedure: Hep-3B cells (ATCC, Manassas, Va.) were plated in 96-well plates at 20,000 cells per well in 100 μl of DMEM containing 10% fetal bovine serum, 1% non-essential amino acids, 50 IU/mL of penicillin and 50 μg/mL of streptomycin (all cell culture reagents from Invitrogen, Carlsbad, Calif.). Twenty-four hours after plating, compounds were added and incubated for an additional 24 hours. […] Erythropoietin in the supernatant was detected according to the manufacturer's instructions as follows. […]
propertyLabel: Emax at 100 µM
Param answer (str): number followed by unit.

Sample records with Emax at 100 µM:
[[record]]
molecule = "CN(C)c1ccc2c(=O)[nH]c(-n3cc(C(=O)O)cn3)nc2c1 [Example 150]"
propertylabel = "Emax at 100 µM"
readoutvalue = "24%"

[[record]]
molecule = "COc1cc(Oc2ccc3nc(-n4cc(C(=O)O)cn4)[nH]c(=O)c3c2)cc(OC)c1OC [Example 28]"
propertylabel = "Emax at 100 µM"
readoutvalue = "9%"

[[record]]
molecule = "O=C(O)c1cnn(-c2nc3ccc(Oc4ccccc4F)cc3c(=O)[nH]2)c1 [Example 33]"
propertylabel = "Emax at 100 µM"
readoutvalue = "56%"

[[record]]
molecule = "CCc1ccccc1-c1ccc2nc(-n3cc(C(=O)O)cn3)[nH]c(=O)c2c1 [Example 203]"
propertylabel = "Emax at 100 µM"
readoutvalue = "77%"


Which Emax at 100 µM reading was recorded for the molecule O=C(O)c1cnn(-c2nc3ccc(Oc4ccc(Cl)cc4Cl)cc3c(=O)[nH]2)c1 [Example 39] ?
77%

Which Emax at 100 µM reading was recorded for the molecule O=C(O)c1cnn(-c2nc3c4c(ccc3c(=O)[nH]2)CCC4)c1 [Example 141] ?
25%

Which Emax at 100 µM reading was recorded for the molecule Cc1cc(C)cc(Oc2cc3c(=O)[nH]c(-n4cc(C(=O)O)cn4)nc3cc2C)c1 [Example 89] ?
137%

Which Emax at 100 µM reading was recorded for the molecule O=C(O)c1cnn(-c2nc3c4c(ccc3c(=O)[nH]2)CCCC4)c1 [Example 142] ?
23%

Which Emax at 100 µM reading was recorded for the molecule O=C(O)c1cnn(-c2nc3ccc(-c4ccccc4OC(F)(F)F)cc3c(=O)[nH]2)c1 [Example 202] ?
29%

Which Emax at 100 µM reading was recorded for the molecule O=C(O)c1cnn(-c2nc3ccc(I)cc3c(=O)[nH]2)c1 [Example 12] ?
50%

Which Emax at 100 µM reading was recorded for the molecule O=C(O)c1cnn(-c2nc3ccc(Oc4ccc5ccccc5c4)cc3c(=O)[nH]2)c1 [Example 43] ?
76%

----------
# System: Hep-3B cells
# procedureSummary: Cellular assay: erythropoietin secretion in Hep-3B cells
# Assay type: cell-based, human
# measurementSetup: Homo sapiens, Hep3B, 100 μM compound, 24 hours, percent of EPO secretion relative to assay control compound 7-[(4-Chloro-phenyl)-(5-methyl-isoxazol-3-ylamino)-methyl]-quinolin-8-ol, read-out: Cellular % EPO Stimulation
Listed here are compounds together with their documented Emax at 100 µM.
Write the answer as a number in %, unit excluded.

Sample records with Emax at 100 µM:
[[record]]
compound = "CCCc1ccc2nc(-n3cc(C(=O)O)cn3)[nH]c(=O)c2c1 [Example 129]"
propertylabel = "Emax at 100 µM"
unitsofmeasure = "%"
readoutvalue = 94

[[record]]
compound = "Cc1cccc2c(=O)[nH]c(-n3cc(C(=O)O)cn3)nc12 [Example 9]"
propertylabel = "Emax at 100 µM"
unitsofmeasure = "%"
readoutvalue = 49

[[record]]
compound = "O=C(O)c1cnn(-c2nc3cc(-c4ccccc4)ccc3c(=O)[nH]2)c1 [Example 184]"
propertylabel = "Emax at 100 µM"
unitsofmeasure = "%"
readoutvalue = 12

[[record]]
compound = "Cc1cccc(C)c1CNc1ccc2nc(-n3cc(C(=O)O)cn3)[nH]c(=O)c2c1 [Example 175]"
propertylabel = "Emax at 100 µM"
unitsofmeasure = "%"
readoutvalue = 97

[[record]]
compound = "COc1cccc(-c2ccc3nc(-n4cc(C(=O)O)cn4)[nH]c(=O)c3c2)c1 [Example 199]"
propertylabel = "Emax at 100 µM"
unitsofmeasure = "%"
readoutvalue = 119


Which Emax at 100 µM reading was recorded for the compound O=C(O)c1cnn(-c2nc3ccc(C4CC4)cc3c(=O)[nH]2)c1 [Example 109] ?
100

Which Emax at 100 µM reading was recorded for the compound COc1cc2nc(-n3cc(C(=O)O)cn3)[nH]c(=O)c2cc1Oc1ccccc1 [Example 62] ?
7

Which Emax at 100 µM reading was recorded for the compound O=C(O)c1cnn(-c2nc3ccc(Oc4cccc(-c5ccccc5)c4)cc3c(=O)[nH]2)c1 [Example 99] ?
81

Which Emax at 100 µM reading was recorded for the compound COc1cc2nc(-n3cc(C(=O)O)cn3)[nH]c(=O)c2c(OC)c1OC [Example 18] ?
42

----------
# Test system: Hep-3B cells
# procedureSummary: Cellular assay: erythropoietin secretion in Hep-3B cells
# Format: cell-based, human
# measurementSetup: Homo sapiens, Hep3B, 100 μM compound, 24 hours, percent of EPO secretion relative to assay control compound 7-[(4-Chloro-phenyl)-(5-methyl-isoxazol-3-ylamino)-methyl]-quinolin-8-ol, read-out: Cellular % EPO Stimulation
Listed here are compounds together with their documented Emax at 100 µM.
Write the answer as a number in %, unit excluded.

[[record]]
smilesrepr = "COc1ccccc1-c1ccc2nc(-n3cc(C(=O)O)cn3)[nH]c(=O)c2c1"
readoutvalue = 178


Which Emax at 100 µM reading was recorded for the compound CC(C)Oc1ccc2nc(-n3cc(C(=O)O)cn3)[nH]c(=O)c2c1 ?
75

Which Emax at 100 µM reading was recorded for the compound O=C(O)c1cnn(-c2nc3cc(S(=O)(=O)c4ccccc4)ccc3c(=O)[nH]2)c1 ?
26

----------
# Tested on: Hep-3B cells
# procedureSummary: Cellular assay: erythropoietin secretion in Hep-3B cells
# Assay type: cell-based, human
# measurementSetup: Homo sapiens, Hep3B, 100 μM compound, 24 hours, percent of EPO secretion relative to assay control compound 7-[(4-Chloro-phenyl)-(5-methyl-isoxazol-3-ylamino)-methyl]-quinolin-8-ol, read-out: Cellular % EPO Stimulation
propertyLabel: Emax at 100 µM (%)
Write the answer as a number in %, unit excluded.

Sample records with Emax at 100 µM:
[[record]]
compound = "CCNc1ccc2nc(-n3cc(C(=O)O)cn3)[nH]c(=O)c2c1 [Example 172]"
readoutvalue = 20

[[record]]
compound = "Cc1cccc(C)c1Oc1ccc2nc(-n3cc(C(=O)O)cn3)[nH]c(=O)c2c1 [Example 42]"
readoutvalue = 117

[[record]]
compound = "C#Cc1ccc2nc(-n3cc(C(=O)O)cn3)[nH]c(=O)c2c1 [Example 76]"
readoutvalue = 16


Which Emax at 100 µM reading was recorded for the compound O=C(O)c1cnn(-c2nc3ccc(N4CCOCC4)cc3c(=O)[nH]2)c1 [Example 107] ?
45

Which Emax at 100 µM reading was recorded for the compound O=C(O)c1cnn(-c2nc3cc(F)c(Oc4c(Cl)cccc4Cl)c(F)c3c(=O)[nH]2)c1 [Example 101] ?
24
